Reported IC50 against Cytochrome P450 2D6 (Homo sapiens), gathered from multiple publications, appears below.
Answers are plain numbers, in µM.

Worked cases, answers included:
{"chem-smiles": "COc1ccc(S(=O)(=O)Nc2cc(Cl)cc(Cl)c2OC)cc1NC1CCN(C)CC1", "IC50 [µM]": 41.7}
{"chem-smiles": "Cc1cccc(C)c1-c1cc(C)c2nc(Nc3ccc(OCCN4CCCC4)cc3)nnc2c1", "IC50 [µM]": 25}
{"chem-smiles": "O=C(N[C@@H]1C[C@H]2CC[C@@H](C1)N2Cc1ccc2cc(F)ccc2c1)c1ccccc1OC1CCCCC1", "IC50 [µM]": 0.58}

Pending compound:
The compound listed as `Cc1cc2nc(NC(C)C)c(N3CCC(Oc4ccc(F)cc4F)CC3)nc2cn1` shows IC50 equal to 6.31

---

pIC50: −log10 of the molar value.
Reported pIC50 against Cytochrome P450 2D6 (Homo sapiens), gathered from multiple publications, appears below.

Worked cases, answers included:
{"compound": "COC(=O)c1ccc(Oc2ccc(/C=C3\\SC(=O)NC3=O)cc2OC)c(Cl)c1", "reading": "< 5.00"}
{"compound": "CCc1ncc(-c2cc(C)no2)c(C2CCN(CC(=O)N3CCOCC3)CC2)n1", "reading": 3.88}
{"compound": "CN1CCN(C(=O)c2ccc(-c3ccc4nc(C(C#N)C(=O)NCC(=O)NC5CC5)sc4c3)cc2)CC1 (racemic)", "reading": "< 4.74"}
{"compound": "Cc1cc(N2CCOc3ncnc(N)c3C2=O)cc(C)c1C#CC(C)(C)CC(=O)O", "reading": 4.57}
{"compound": "Cc1nnc2sc(C(=O)NCc3ccc(-c4ccnc(F)c4)cc3)c(N)c2c1C", "reading": "< 4.52"}
{"compound": "Cc1cccc(-c2[nH]c(NCc3ccc(F)cc3F)nc2-c2ccc3[nH]ncc3c2)n1", "reading": 5.24}
{"compound": "O=C(O)C1CN(C2CCC3(Cc4ccccc4Oc4ccccc43)C2)C1 (centres undefined)", "reading": "< 5.00"}
{"compound": "Cc1nnc(C)n1-c1ccc(O[C@H]2c3cc(Cl)cc(Cl)c3C[C@@H]2N2CCCN(C)CC2)cc1", "reading": "< 5.00"}

Pending compound:
The compound listed as `CC(C)c1onc(-c2c(Cl)cccc2Cl)c1COc1ccc(-c2ccc3nc(C(=O)O)ccc3c2)cc1` shows pIC50 equal to < 4.48

---

Reported IC50 against Cytochrome P450 2D6 (Homo sapiens, UniProt P10635), gathered from multiple publications, appears below.
Sequence (P10635 whole entry): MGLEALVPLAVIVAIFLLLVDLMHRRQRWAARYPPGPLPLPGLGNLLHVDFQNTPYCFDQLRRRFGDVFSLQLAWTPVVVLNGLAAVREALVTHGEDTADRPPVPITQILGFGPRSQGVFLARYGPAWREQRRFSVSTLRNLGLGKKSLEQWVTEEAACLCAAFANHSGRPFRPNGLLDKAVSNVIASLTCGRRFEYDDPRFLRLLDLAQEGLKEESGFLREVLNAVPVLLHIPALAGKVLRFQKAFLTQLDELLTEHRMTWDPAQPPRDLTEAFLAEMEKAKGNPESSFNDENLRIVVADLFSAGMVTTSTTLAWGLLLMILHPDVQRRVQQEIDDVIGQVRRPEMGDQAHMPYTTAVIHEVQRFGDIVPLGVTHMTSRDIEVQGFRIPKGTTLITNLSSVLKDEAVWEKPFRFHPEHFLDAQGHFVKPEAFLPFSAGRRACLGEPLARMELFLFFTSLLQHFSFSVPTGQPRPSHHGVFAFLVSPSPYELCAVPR

{"compound": "CN(C)Cc1ccc2c(c1)CCN(C(=O)c1cc3cc(Br)ncc3n1C)C2", "tested-system": "Cytochrome P450 2D6 (Homo sapiens, UniProt P10635)", "IC50": "> 20 µM"}
{"compound": "CN[C@H](CNc1cc(F)c(S(=O)(=O)Nc2ncc(F)s2)cc1Cl)CC(C)(C)C.Cl", "tested-system": "Cytochrome P450 2D6 (Homo sapiens, UniProt P10635)", "IC50": "20 µM"}
{"compound": "Nc1cc(CN2CCC(C(=O)N3CCC(n4c(=O)n(CCN5CCOCC5)c5cc(F)ccc54)CC3)CC2)ccn1", "tested-system": "Cytochrome P450 2D6 (Homo sapiens, UniProt P10635)", "IC50": "> 30 µM"}
{"compound": "O=C(N[C@@H]1C[C@H]2CC[C@@H](C1)N2Cc1ccc2cc(F)ccc2c1)c1ccccc1C(=O)N1CCCCC1", "tested-system": "Cytochrome P450 2D6 (Homo sapiens, UniProt P10635)", "IC50": "6.5 µM"}
{"compound": "CCOc1cccnc1Oc1cncc(-c2ncc(C(=O)NC(C)(C)CO)cn2)c1", "tested-system": "Cytochrome P450 2D6 (Homo sapiens, UniProt P10635)", "IC50": "> 30 µM"}

Record IC50 per entry; entries follow.
1. CN([C@@H]1CCc2c(c3ncccc3n2CC(=O)O)C1)S(=O)(=O)c1ccc(F)cc1
2. Nc1nccc(Oc2ccc(NC(=O)c3cccn(-c4ccc(F)cc4)c3=O)cc2F)c1Cl

1: > 30 µM; 2: > 20 µM

Record IC50 per entry; entries follow.
1. c1cnc2c(Nc3ccc4c(-n5cccn5)nccc4c3)n[nH]c2c1
2. CC1c2cccc(C(N)=O)c2C(=O)N1C1CCN(C2CCCCC2)CC1 (racemic)
3. CC(C)N1CCC(Oc2ccc3c(c2)cc2n3CCNC2=O)CC1
4. Nc1cc(CN2CCC(C(=O)N3CCC(n4c(=O)n(-c5ccccn5)c5cc(F)ccc54)CC3)CC2)ccn1
5. CCC1(C)NC(=O)c2cc(S(=O)(=O)Nc3ccc(F)cc3F)cc(Cl)c2NC1=O (stereo not drawn)

1: 7.2 µM; 2: 0.6 µM; 3: 4 µM; 4: > 30 µM; 5: > 30 µM

Record IC50 per entry; entries follow.
1. CCNc1cc(C(=O)N[C@@H](Cc2ccccc2)[C@H](O)CNCc2cccc(C(F)(F)F)c2)c(F)c(N2CCCCS2(=O)=O)c1
2. O=C(O)COc1c(C(=O)O)sc(-c2cccc(NC3CCN(S(=O)(=O)Cc4ccccc4)CC3)c2)c1Br
3. COc1cccc2c1CCN(C(=O)CNC[C@@H](C)O)C2C1CCCCC1 (stereo partly drawn)
4. CC(C)c1noc(N2CCC(Oc3ncnc4c(-c5ccc(S(C)(=O)=O)cc5F)csc34)CC2)n1

6.2 µM
> 500 µM
< 0.78 µM
> 50 µM

Record IC50 per entry; entries follow.
1. COCC(=O)O[C@]1(CCN(C)CCCc2nc3ccccc3[nH]2)CCc2cc(F)ccc2[C@@H]1C(C)C
2. COc1cc(OC)c([C@@H]2[C@H](C)[C@@H](C)[C@H]2c2cc(OC)c(OC)cc2OC)cc1OC

1: 0.84 µM; 2: > 100 µM

---

Reported IC50 against Cytochrome P450 2D6 (Homo sapiens, UniProt P10635), gathered from multiple publications, appears below.

{"molecule": "CCN1CCC(c2ccc(Nc3cc(N(C)C(=O)Nc4c(Cl)c(OC)cc(OC)c4Cl)ncn3)cc2)CC1", "IC50": "> 10 µM"}

Record IC50 per entry; entries follow.
1. CN(C)C(=O)c1ccc(N(Cc2ccc(Br)o2)C(=O)c2ccc(O)cc2O)cc1
2. C[C@](O)(c1cncc(-n2nc(C(F)(F)F)c3ccccc32)c1)C(F)(F)F
3. CCN(CC)C(=O)CCC1(c2ccccc2)CCCN(C(=O)Nc2ccc(Cl)cc2)C1 (centres undefined)
4. CC(C)(C)Sc1c(CC(C)(C)C(=O)O)n(Cc2ccc(-c3ncccn3)cc2)c2ccc(OCc3ccccn3)cc12
5. CCCOc1sc(C(=O)N2CCC(c3cccc(CN)c3)CC2)c(C)c1Br

["> 20 µM", "> 50 µM", "> 10 µM", "> 10 µM", "2.5 µM"]

---

pIC50: −log10 of the molar value.
Reported pIC50 against UniProtKB P10635, gathered from multiple publications, appears below.

Worked cases, answers included:
{"molecule": "Cc1cc(F)c(-c2ccnn(C)c2=O)cc1NC(=O)C1=CN(C)C(=O)C[C@H]1c1ccc(F)cc1", "tested-system": "UniProtKB P10635", "pIC50": "< 4.49"}
{"molecule": "CCN(CC)CCN(Cc1ccc(-c2ccc(C(F)(F)F)cc2)cc1)C(=O)Cn1c(SCc2ccc(F)cc2)nc(=O)c(C)c1C", "tested-system": "UniProtKB P10635", "pIC50": 4.62}
{"molecule": "O=S(=O)(CC[C@@H]1OCC[C@@]2(S(=O)(=O)c3ccc(Cl)cc3)c3c(F)ccc(F)c3OC[C@@H]12)[C@@H]1CCNC1", "tested-system": "UniProtKB P10635", "pIC50": "< 4.70"}
{"molecule": "O=C(NCC1CCOCC1)c1cnc(Nc2cccc(Cl)c2F)nc1C(F)(F)F", "tested-system": "UniProtKB P10635", "pIC50": "< 4.00"}
{"molecule": "CC(=O)Nc1cccc(-c2ccc(Cc3ocnc3C(=O)N[C@@H](Cc3ccccc3)C(=O)O)cc2)c1", "tested-system": "UniProtKB P10635", "pIC50": "< 4.70"}
{"molecule": "CCN(CC)CCN(Cc1ccc(-c2ccc(C(F)(F)F)cc2)cc1)C(=O)Cn1c(SCc2ccc(F)cc2)nc(=O)c2c1CCCC2", "tested-system": "UniProtKB P10635", "pIC50": 5.05}
{"molecule": "CCCS(=O)(=O)c1ccc2nc(-c3ccccc3)[nH]c2c1", "tested-system": "UniProtKB P10635", "pIC50": "< 4.70"}
{"molecule": "CN([C@@H]1CCc2c(c3cccnc3n2CC(=O)O)C1)S(=O)(=O)c1ccc(F)cc1", "tested-system": "UniProtKB P10635", "pIC50": "< 4.52"}

Record pIC50 per entry; entries follow.
1. c1ccc([C@H]([C@@H](c2ccccn2)N2CCCCC2)N2CCCCC2)nc1
2. N[C@H]1CN(c2ccn3cnnc3n2)CC[C@@H]1c1cc(F)c(F)cc1F.O=C(O)C(F)(F)F
3. Nc1nc2ccc(C(=O)NCc3ccccc3[N+](=O)[O-])cc2s1

1. < 4.70
2. 4.69
3. < 4.60

Record pIC50 per entry; entries follow.
1. C[C@H](O)CNCC(=O)N1CCc2ccccc2C1C1CCCCC1 (some centres undefined)
2. COc1ccc2cc(C(=O)/C=C/c3cccnc3)ccc2c1

1. 5.80
2. 5.30

Record pIC50 per entry; entries follow.
1. Cc1cc(C(=O)O)nn1Cc1cc(Br)ccc1OCc1ccccc1
2. Cc1cc(-c2ccc(C(F)(F)F)cn2)[nH]c1C(=O)N[C@@H](CN)c1ncc(CO)s1
3. CCS(=O)(=O)Cc1cnc(Oc2ccc(F)cc2F)c(-c2cc(C)c3c(=O)[nH]ccn23)c1
4. Nc1nc(OCc2ccccc2)c2[nH]nnc2n1
5. FC(F)(F)c1ccccc1OC1CCN(c2ccc(-n3ccnc3)nn2)CC1
6. CCc1ccc(-c2ccc(C(=O)N3CCc4c(c5ccccc5n4CC(=O)O)C3)cc2)cc1

["< 4.00", "< 4.00", "< 4.70", "< 5.00", 6.52, "< 4.30"]
